Data credit: paper PMC4552634

% Inhibition overview
- System: P. falciparum stage V gametocytes
- Design: BacTiter-Glo ATP luminescence viability of purified stage V gametocytes in 384-well plates, per cent inhibition versus DMSO
- experimental-parameters: 48 h, 5 µM; inhibitor
The whole screen tested about 13,000 compounds, of which about 3,200 (25%) showed an effect of 50% or more. The list shows a part of the results.
Note: unit % is implicit; provide only the numeric part.

Dear colleague, I am looking for the recorded % Inhibition of the following compound: COc1cccc(C(=O)Nc2nc3c(s2)CCN(Cc2ccccc2N2CCNCC2)CC3)c1.O=C(O)C(F)(F)F [TCMDC-134190]
63.98

Dear colleague, I am looking for the recorded % Inhibition of the following compound: Cc1[nH]c(C)c(-c2ccc(OCc3ccc(OC(F)(F)F)cc3)nc2)c(=O)c1Cl [TCMDC-135271]
11.85

Dear colleague, I am looking for the recorded % Inhibition of the following compound: C[C@@H](C(=O)N1CCOCC1)N1CC[C@H](NS(=O)(=O)c2ccc3ccnc(N)c3c2)C1=O [TCMDC-136755]
0.9724

Dear colleague, I am looking for the recorded % Inhibition of the following compound: O=C(Nc1cccc(OC2CCN(Cc3ccccc3)CC2)c1)c1ccc([N+](=O)[O-])cc1 [TCMDC-139543]
0.689

Dear colleague, I am looking for the recorded % Inhibition of the following compound: Cc1[nH]c(C)c(-c2ccc(OCc3cc(C(F)(F)F)cc(C(F)(F)F)c3)nc2)c(=O)c1Cl [TCMDC-135814]
52.24

Dear colleague, I am looking for the recorded % Inhibition of the following compound: COc1ccc(CN2CCCC(C(=O)c3ccc(C(F)(F)F)cc3)C2)c(O)c1 (centres unmarked) [TCMDC-124631]
43.69

Dear colleague, I am looking for the recorded % Inhibition of the following compound: CC1CCN(Cc2c(O)ccc3c(CN4CCC(C)CC4)c(O)ccc23)CC1 [TCMDC-137584]
-14.01

Dear colleague, I am looking for the recorded % Inhibition of the following compound: Nc1ncnc2c1ncn2C(CO)Cc1ccc(O)cc1 (centres unmarked) [TCMDC-137893]
-20.6

Dear colleague, I am looking for the recorded % Inhibition of the following compound: CC(=O)Nc1ncc(C(=O)Nc2cccc(-c3cccc(-c4nc5ccccc5[nH]4)c3)c2)s1 [TCMDC-136911]
11.96

Dear colleague, I am looking for the recorded % Inhibition of the following compound: COc1ccc(C2N=C(N)N=C(N)N2c2ccc(Cl)cc2)cc1OC (centres unmarked) [TCMDC-123670]
-7.954

Dear colleague, I am looking for the recorded % Inhibition of the following compound: CN1CCN(c2cc3c(cc2Br)CCN3C(=O)Nc2ccc(-c3cnc4ccccc4c3)cc2)CC1 [TCMDC-139280]
14.3

Dear colleague, I am looking for the recorded % Inhibition of the following compound: COc1ccc(-c2ccc(NC(=O)c3cccc(C#N)c3)cc2)cc1CN1CCNCC1 [TCMDC-132530]
-2.653

----------
- Test system: P. falciparum stage V gametocytes
- Parameters: BacTiter-Glo ATP luminescence viability of purified stage V gametocytes in 384-well plates, per cent inhibition versus DMSO
- experimental-parameters: 48 h, 5 µM; inhibitor
The campaign covered roughly 13,000 compounds. About 3,200 (25%) showed an effect of 50% or more. The list shows a part of the results.
% Inhibition overview
Note: unit % is implicit; provide only the numeric part.

Some compounds with recorded % Inhibition:
{"compound": "CCCOc1cccc(C(=O)N[C@@H](Cc2ccccc2)[C@H](O)CNCc2ccccc2OC)c1", "% Inhibition [%]": 81.52}
{"compound": "Cc1c(-c2ccc3c(c2)C(NCCCN2CCCCC2)CC3)cnc(N)c1C (centres unmarked)", "% Inhibition [%]": 53.54}
{"compound": "Cc1c(Br)cc2[nH]c(-c3ccc(C(=O)NC4CCN(Cc5ccccc5)CC4)cc3)nc2c1C", "% Inhibition [%]": -88.51}

Alright, here's another compound for you.
Dear colleague, I am looking for the recorded % Inhibition of the following compound: O=C(NCCN1CCCCC1)c1ccc(CNC(=O)c2ccc(O)c(-c3cccc(C(F)(F)F)c3)c2)cc1
7.187

----------
- Test system: P. falciparum stage V gametocytes
- Set-up: BacTiter-Glo ATP luminescence viability of purified stage V gametocytes in 384-well plates, per cent inhibition versus DMSO
- experimental-parameters: 48 h, 5 µM; inhibitor
Among all 13,000 compounds or so, about 3,200 (25%) showed an effect of 50% or more. The list shows a part of the results.
# cutoff 20% applies to % Inhibition; >= gives Criterion met, < gives Criterion not met

Some solved entries appear below for comparison.
{"molecule": "CC(C)(C)OC(=O)N[C@@H](CS(=O)(=O)CCN=C(N)COCc1ccccc1)C(=O)OC(C)(C)C", "discrete-label": "Criterion met"}
{"molecule": "COc1cc2c(c(OC)c1OC)C[C@H]1c3c(cc4c(c3-2)OCO4)CCN1C", "discrete-label": "Criterion not met"}
{"molecule": "COc1ccc(Nc2ncc3c(-c4cccc(NC(=O)Cc5ccncc5)c4)c[nH]c3n2)cc1OC", "discrete-label": "Criterion not met"}
{"molecule": "CCCCCC(=O)N1CCOC(CCN2CCc3c(c4ccccc4n3C)C2)(c2ccc(Cl)c(Cl)c2)C1 (centres unmarked)", "discrete-label": "Criterion not met"}
{"molecule": "O=C(NCC1Cc2cc(Oc3ccccc3)ccc2O1)c1ccc([N+](=O)[O-])o1 (centres unmarked)", "discrete-label": "Criterion met"}
{"molecule": "OC(c1cccc2ccccc12)C1CN(CCc2ccccc2)CCC1(O)c1ccccc1 (centres unmarked)", "discrete-label": "Criterion met"}
{"molecule": "O=C(O)C(F)(F)F.OC1CCCN(Cc2cccc(-c3ccc(-c4nc5cc(F)ccc5[nH]4)cc3)c2)C1 (centres unmarked)", "discrete-label": "Criterion not met"}

Could you please find out whether COc1ccc(Nc2ncc3c(-c4cccc(NC(=O)CC(C)C)c4)c[nH]c3n2)cc1OC has % Inhibition that meets 20% or exceeds it?
Criterion met

----------
- Tested on: P. falciparum stage V gametocytes
- Parameters: BacTiter-Glo ATP luminescence viability of purified stage V gametocytes in 384-well plates, per cent inhibition versus DMSO
- experimental-parameters: 48 h, 5 µM; inhibitor
Hit rate of the full screen: of about 13,000 compounds, about 3,200 (25%) showed an effect of 50% or more. The list shows a part of the results.
assay-metric: % Inhibition (%)
Note: unit % is implicit; provide only the numeric part.

Some compounds with recorded % Inhibition:
{"compound": "CN(C)CCn1cc(C(=O)c2cc(Cl)ccc2O)cc1-c1nc2ccccc2c(=O)[nH]1", "% Inhibition (%)": -20.22}
{"compound": "COc1cc(NC(=O)c2cc3c(C)nn(-c4cccc(C(F)(F)F)c4)c3s2)cc(OC)c1OC", "% Inhibition (%)": -65.38}
{"compound": "COC(=O)Cn1c(C2CCN(CC3CCC(NC(=O)/C=C/c4ccc(Cl)c(Cl)c4)CC3)CC2)nc2ccccc21 (stereo not shown)", "% Inhibition (%)": -20.25}

Alright, here's another compound for you.
Dear colleague, I am looking for the recorded % Inhibition of the following compound: O=C(Nc1ccccc1)N(Cc1ccccc1-c1cccc(CNC2CCCC2)c1)C1CCN(Cc2ccccc2)CC1
108.7

----------
- System: P. falciparum stage V gametocytes
- Design: BacTiter-Glo ATP luminescence viability of purified stage V gametocytes in 384-well plates, per cent inhibition versus DMSO
- experimental-parameters: 48 h, 5 µM; inhibitor
Among all 13,000 compounds or so, about 3,200 (25%) showed an effect of 50% or more. The list shows a part of the results.
// classify(record): look up % Inhibition in ranges c1 = under -10%, c2 = from -10% up to 30%, c3 = 30% and over

{"compound": "CN(C)Cc1cccc(-c2ccc(NC(=O)c3ccc4c(=O)n(CCN5CCCCC5)cnc4c3)cc2)c1 [TCMDC-132362]", "target-desc": "P. falciparum stage V gametocytes", "discrete-label": "c3"}
{"compound": "CC(Nc1ncc(-c2ccsc2)c(-c2nccs2)n1)c1ccc2c(c1)OCCO2 (centres unmarked) [TCMDC-125367]", "target-desc": "P. falciparum stage V gametocytes", "discrete-label": "c1"}
{"compound": "Cc1[nH]c(C)c(-c2ccc(-c3ccccc3C(F)(F)F)nc2)c(=O)c1Br [TCMDC-135881]", "target-desc": "P. falciparum stage V gametocytes", "discrete-label": "c3"}
{"compound": "CCC(C)CN1CCC(N(C)c2cc(NC(=O)c3cccc(C)c3)ccn2)CC1 (centres unmarked) [TCMDC-134950]", "target-desc": "P. falciparum stage V gametocytes", "discrete-label": "c2"}
{"compound": "COc1ccc2nccc([C@H](O)CN3CCC(NCc4ccc5c(c4C)OCCO5)CC3)c2n1 [TCMDC-136066]", "target-desc": "P. falciparum stage V gametocytes", "discrete-label": "c2"}

Which % Inhibition band matches Clc1ccc(-c2cc(-c3csc(Nc4ccncc4)n3)on2)cc1 [TCMDC-135160] ?
c1

Which % Inhibition band matches CCOc1ccc(-c2n[nH]c(C(F)(F)F)c2-c2ccccc2OC)c(O)c1 [TCMDC-124564] ?
c1

Which % Inhibition band matches CN(C)Cc1cccc(-c2ccc(NC(=O)c3ccc4c(=O)n(Cc5cnn(C)c5)cnc4c3)cc2)c1 [TCMDC-132370] ?
c1

Which % Inhibition band matches CCCn1cnc2cc(C(=O)Nc3ccc(-c4cccc(CN(C)C)c4)cc3)ccc2c1=O [TCMDC-132363] ?
c2

Which % Inhibition band matches O=C(Nc1ccc2c(c1)CCC2)c1ccc(N2CCN(c3ccncc3)CC2)cc1 [TCMDC-135127] ?
c3

Which % Inhibition band matches Cc1[nH]c(C)c(-c2ccc(-c3ccc(C(F)(F)F)cc3C(F)(F)F)nc2)c(=O)c1Br [TCMDC-136013] ?
c3
